Hello, the source for this data is ChEMBL document CHEMBL3046544, in case you need it.

# Tested on: Echinochloa esculenta
# EXPERIMENT SUMMARY: Herbicidal activity against Echinochloa esculenta assessed as inhibition of seed germination at 1000 nM after 5 days relative to control
# Format: functional
# TEST SETTINGS: 120 h
Listed compounds paired with reported inhibition at 1 µM

Some entries whose results are on file:
Cc1cccc(C(O)C2CCCN(Cc3ccccc3)C2=O)c1 (mixture of isomers) :: > 90%
O=C1C(C(O)c2ccc(Cl)cc2)CCCN1Cc1ccccc1 (mixture of isomers) :: > 90%

Field: next compound
Task: Name the reported inhibition at 1 µM value associated with the compound Cc1ccc(C(O)C2CCCN(Cc3ccccc3)C2=O)cc1 (mixture of isomers)
Output: > 90%

---

# System: Echinochloa esculenta
# EXPERIMENT SUMMARY: Herbicidal activity against Echinochloa esculenta assessed as inhibition of seed germination at 1000 nM after 5 days relative to control
# Assay type: functional
# TEST SETTINGS: 120 h
MEASURED ATTRIBUTE: inhibition at 1 µM (%)
State just the number; it will be interpreted in %.

CCOCC1COc2cc(C(O)C3CCCN(Cc4ccccc4)C3=O)ccc2O1 (mixture of isomers) :: 50
O=C1C(C(O)c2ccc(C(F)(F)F)cc2)CCCN1Cc1ccccc1 (mixture of isomers) :: 50

Task: I'm curious: which inhibition at 1 µM was measured for O=C1C(C(O)c2ccc([N+](=O)[O-])cc2)CCCN1Cc1ccccc1 (mixture of isomers) tested on Echinochloa esculenta?
Output: 50
